Header: pIC50 / Protein kinase C theta type (Homo sapiens, UniProt Q04759) / multiple publications
pIC50: −log10 of the molar value.
endpoint name: pIC50

Check out these entries, answers already filled in.
item smiles	observed result
CN1C(C)(C)CC(Nc2nc(Nc3ccc(N4CCN(S(C)(=O)=O)CC4)c(C#N)c3)ncc2Cl)CC1(C)C	8.15
COc1ccc(CNCCO)cc1-c1cc2c(Nc3ccc4[nH]ccc4c3C)c(C#N)cnc2s1	8.70
Cc1c(Nc2c(C#N)cnc3sc(-c4cnc(N5CCOCC5)nc4)cc23)ccc2[nH]ccc12	7.16
CN1C(C)(C)CC(Nc2nc(Nc3ccc(-c4ccncc4)c(C(F)(F)F)c3)ncc2F)CC1(C)C	8.34
N#Cc1cnc2sc(-c3cccc(CN4CCN(CCO)CC4)c3)cc2c1Nc1ccc2[nH]ccc2c1	7.14
Cc1c(Nc2c(C#N)cnc3sc(-c4cc5cc(C=O)ccc5s4)cc23)ccc2[nH]ccc12	6.85

(a) CN(C)c1ccc(-c2cncc(C#N)c2Nc2cccc(F)c2)cc1
(b) CN1C(C)(C)CC(Nc2nc(Nc3ccc(-n4cccc4)c(C#N)c3)ncc2F)CC1(C)C
// compare measured pIC50, left a , right b , return larger Reply briefly: the label of your chosen item.
b
